system: MDA-MB-435; assay: NCI tumour cell line growth inhibition, 48 h
TGI values by entry
measured metric: TGI (µM)

1) CCCCC1Cc2cc(O)ccc2-c2n1c1cc(O)ccc1[n+]2C (stereo not given) (tested in a mixture with another compound)	59.6
2) CCN1CCC[C@H]1c1cc(O)c2c(c1OC)C[C@H]1C[C@H]3[C@H](N)C(=O)C(C(N)=O)=C(O)[C@@]3(O)C(=O)C1=C2O	2.34

====

GI50 values by entry
test system: HCT-15 colon
measured metric: GI50

1. COc1cc(CNC(=O)/C=C/C=C/c2ccc3c(c2)OCO3)ccc1OCc1cn(-c2ccc(Cl)c(Cl)c2)nn1	519 nM
2. COC1=C(OC)C(=O)C(/C=C(\C)C(=O)O)=C(C)C1=O	> 100000 nM
3. CCN1CCN(CCOc2ccc(CNc3ccc4nc(CCC5CCCCC5)[nH]c4c3)cc2)CC1	1430 nM
4. COC(=O)/C(C#N)=C\N1CCN(C(=O)c2ccco2)C1=S	2950 nM
5. O=S(=O)(NCCNc1nccc(-c2c(-c3cccc(O)c3)nc3sccn23)n1)c1ccc(F)cc1	10800 nM

====

TGI values by entry
tested on: 786-0 renal; test: NCI tumour cell line growth inhibition, 48 h
measured metric: TGI

1. ON=C1CCCCC(=NO)CCCC1	> 100 µM
2. CCCCCCc1nn2c(-c3ccc(C)cc3)nnc2s1	> 100 µM
3. Cc1c2ccccc2c(C)c2c3c(ccc12)C(=O)C=CC3=O	> 62.2 µM
4. C1CNCCN2CCCNCCN(C1)CC2	> 100 µM
5. COc1cc2cc(c1Cl)N(C)C(=O)CC(OC(=O)C(C)C)C1(C)OC1C(C)C1CC(O)(NC(=O)O1)C(OC)/C=C/C=C(C)C2 (centres undefined)	30.6 µM
6. CC(=O)Nc1ccc2nncnc2c1	> 100 µM
7. C=C1CC[C@@H]2C(C)(C)[C@@H](O)CC[C@@]2(C)[C@@H]1COc1ccc2ccc(=O)oc2c1	30.6 µM
8. O=C(CCc1nnc2s/c(=C\c3ccccc3)c(=O)n12)Nc1cc(Cl)ccc1Cl	> 100 µM
9. O=C1CCCCC/C=C2/CC[C@H](Sc3ccccc3)[C@@H]12	> 100 µM

====

system: OVCAR-5 ovarian
Outcome codes: active, inactive

1) COC(=O)[C@]12CC[C@@H](C)[C@H](C)[C@@H]1C1=CC[C@@H]3[C@@]4(C)C[C@@H](OC(=O)c5ccco5)[C@H](O)[C@@](C)(CO)[C@@H]4[C@H](O)C[C@@]3(C)[C@]1(C)CC2	inactive
2) CCN(CC)CCN1C(=O)c2cccc3c(-c4ccc5c(c4)ncn5C4CCCCC4)ccc(c23)C1=O	inactive
3) COc1ccc(Nc2c3ccccc3nc3c2c2ccccc2n3C)cc1	inactive
4) CN(C)CC(C(=O)c1ccccc1)c1ccccc1 (stereo not given)	inactive
5) CC1=C(N2CC2)C(=O)C(CO)=C(N2CC2)C1=O	active
6) Nc1nc(N)c2cc(CNc3ccc(Cl)c(Cl)c3)ccc2n1	inactive
7) Cc1cccc(CN(C)c2ccc(CO)c(Cl)c2)c1	inactive
8) CCOc1ccc(Cc2nccc3cc(OCC)c(OCC)cc23)cc1OCC	inactive
9) O=C1NC(=NCC(CO)c2ccccc2)S/C1=C\c1ccc2ncccc2c1 (stereo not given)	inactive
10) CC/C(=N\Nc1nc2ccccc2n1C)c1ccccn1	active

====

GI50, KM12 colon: measured values
measured metric: GI50

1. CCOc1ccc(Cc2nccc3cc(OCC)c(OCC)cc23)cc1OCC	4850 nM
2. CC/C(=N\Nc1nc2ccccc2n1C)c1ccccn1	190 nM
3. COc1ccc(CN2c3ccccc3Sc3ccccc32)cc1F	471 nM
4. CCCc1cc(=O)oc2c(C(=O)CC(C)C)c(O)c(CC=C(C)C)c(O)c12	11000 nM

====

system: SF-268 CNS; experiment: NCI tumour cell line growth inhibition, 48 h
measured metric: TGI

1) COc1ccc2c(=O)c([Se]c3coc4cc(OC)ccc4c3=O)coc2c1	> 100 µM
2) CC(C)OP(=O)(OC(C)C)C(C(F)(F)F)C(F)(F)F	> 100 µM
3) CCc1cccc(C(C)CC)c1N=C(NC(=O)c1ccccc1C(=O)NC(=Nc1c(CC)cccc1C(C)CC)SC)SC (stereo not given)	> 100 µM
4) Nc1ccc2c(c1)C(=O)c1ccc(F)cc1-2	> 100 µM
5) COc1cc(Cn2c3c(c4c(CN(C)C)c(O)ccc42)C(=O)c2ccccc2C3=O)cc(OC)c1	27.9 µM

====

TGI values by entry
test system: CAKI-1 renal; assay: NCI tumour cell line growth inhibition, 48 h
measured metric: TGI

1) COC(=O)/C(C#N)=C\N1CCN(C(=O)c2ccco2)C1=S	14.1 µM
2) COc1cc(Cn2c3c(c4c(CN(C)C)c(O)ccc42)C(=O)c2ccccc2C3=O)cc(OC)c1	30.4 µM
3) N=C(N)n1ncc(Cl)c(Cl)c1=O	3.31 µM
4) O=C(N/N=C(/COc1cccc(Cl)c1)N=Cc1ccncc1)c1ccncc1	> 100 µM
5) CCCCC1Cc2cc(O)ccc2-c2n1c1cc(O)ccc1[n+]2C (stereo not given) (tested in a mixture with another compound)	> 100 µM
6) Cc1ccnc(NS(=O)(=O)c2ccc(NC(=O)c3ccc4nc5ccccc5c(Nc5ccc(S(=O)(=O)Nc6nccc(C)n6)cc5)c4c3)cc2)n1	> 100 µM
7) CC(=O)OCC1C(C(C)OC(C)=O)CCC2C1CCC1(C)C(OC(C)=O)CCC21 (stereo not given)	> 100 µM
8) O=S(=O)(NCCNc1nccc(-c2c(-c3cccc(O)c3)nc3sccn23)n1)c1ccc(F)cc1	40.5 µM
9) C/C=C/C=N/N(c1nnc(-c2ccccc2)c(-c2ccccc2)n1)S(=O)(=O)c1ccc(C)cc1	31.4 µM
10) Nc1nnc2nc(CC(=O)/C=C/c3ccccc3)c(=O)[nH]n12	> 100 µM
11) CCCCc1ccc(Nc2nc3c(ncn3C3OC(COC(C)=O)C(OC(C)=O)C3OC(C)=O)c(=O)[nH]2)cc1 (stereo not given)	> 100 µM
12) N#CC12COC3(CCCCC3C1(C#N)C#N)OC2=N (stereo not given)	14.2 µM
13) OC1CN(OC/C=C/c2ccccc2)CC(O)C1O (stereo not given)	> 100 µM
14) COc1ccc2c(=O)c([Se]c3coc4cc(OC)ccc4c3=O)coc2c1	> 100 µM
15) Cc1cc2c3ccccc3n(C)c2c2c1C(=O)c1ccccc1C2=O	54.8 µM
16) COc1ccc(Nc2c3ccccc3nc3c2c2ccccc2n3C)cc1	> 100 µM
17) O=C(NC(=O)c1cn(CCN2CCNCC2)c(=O)[nH]c1=O)OCc1ccccc1	> 100 µM
18) O=C(CCc1nnc2s/c(=C\c3ccccc3)c(=O)n12)Nc1cc(Cl)ccc1Cl	> 100 µM
19) CCOC(=O)C(Cc1ccc2c(c1)CCC2)(Cc1ccc2c(c1)CCC2)C(=O)OCC	> 100 µM
20) COc1ccc(/C=C2/C(=O)N(C(=O)c3ccccc3O)N=C2C)cc1OC	> 28.1 µM

====

system: A498 renal; experiment: NCI tumour cell line growth inhibition, 48 h
measured metric: TGI (µM)

1) CC(=O)OCC1C(C(C)OC(C)=O)CCC2C1CCC1(C)C(OC(C)=O)CCC21 (configuration not stated)	41.4
2) CCCCCCN(CCCCCC)CCCNc1nccc2ccccc12	2.8
3) Cc1ccc2nc3c(C(=O)NCCN(C)C)cccc3cc2c1	3.4
4) N#CS/C(C(Cl)=C(Cl)Cl)=C(/Cl)[N+](=O)[O-]	38.2
5) CN(C)C(=S)Nc1nnc(NC23CC4CC(CC(C4)C2)C3)s1	37.3

====

tested on: SK-MEL-5 melanoma; test: NCI tumour cell line growth inhibition, 48 h
TGI values by entry
measured metric: TGI

1) CSC1=Nc2c(c(C)c(-c3ccccc3)n2COC(CO)CO)C2=NC(=O)C(C)N12 (stereo not given)	> 100 µM
2) CS(C)(=O)=N/C=C\C(=O)C(Cl)(Cl)Cl	> 100 µM
3) COc1ccc2c(c1)C(=O)c1c-2n(CCCN=[N+]=[N-])c(=O)c2ccccc12	> 100 µM
4) CCCCCCCCCCCCCCCCOC(=O)C(C(=O)OCCCCCCCCCCCCCCCC)[N+](C)(C)CCOC(C)=O	35.1 µM
5) O=C(CCCn1c2c(sc3ncccc32)c(=O)n2nnc(-c3ccccc3)c12)NCCc1cnc[nH]1	> 100 µM

====

test system: HOP-92 NSCLC; assay: NCI tumour cell line growth inhibition, 48 h
// thresholds for TGI classes: one: < 9 µM; two: ≥ 9 µM and < 40 µM; three: ≥ 40 µM

1. COc1cc(CNC(=O)/C=C/C=C/c2ccc3c(c2)OCO3)ccc1OCc1cn(-c2ccc(Cl)c(Cl)c2)nn1	one
2. CCOC(=O)C1=C(Nc2ccccc2)OC/C1=N\NC(=O)Cc1ccccc1	three
3. NCCCNCCSSCc1ccccc1CSSCCNCCCN	three
4. CCCCCCN(CCCCCC)CCCNc1nccc2ccccc12	one
5. CC(C)(O)[C@@H]1CCC(C)([C@H]2[C@@H](O)CC3(C)C4CC(OC5OC(CO)C(O)C(O)C5O)C5C(C)(C)[C@@H](OC6OCC(O)C(O)C6O)CC[C@@]56C[C@@]46CC[C@]23C)O1 (stereo not given in full)	three
6. COC(=O)/C(C#N)=C\N1CCN(C(=O)c2ccco2)C1=S	three
7. Cc1cccc2c1Oc1cc(Cl)ccc1C2NC(=O)CCN1CCCCC1 (stereo not given)	two
8. O=c1[nH]c(=S)[nH]c2c1sc(=S)n2-c1ccccc1	three
9. C=CCn1c2ccccc2c2c(C)c3cnccc3c(C)c21	two
10. COc1ccc2nc(-c3ccc(OC(=O)N(C)C)cc3)cn2c1	three
11. Cc1ccnc(NS(=O)(=O)c2ccc(NC(=O)c3ccc4nc5ccccc5c(Nc5ccc(S(=O)(=O)Nc6nccc(C)n6)cc5)c4c3)cc2)n1	three
12. CC/C(=N\Nc1nc2ccccc2n1C)c1ccccn1	one
13. CC(=O)OC1(C#N)CC2OC1C1C2N1C(=O)c1ccccc1 (stereo not given)	three
14. Cc1ccc2nc3c(Cl)cc(=O)cc-3sc2c1	two
15. COc1ccc(-c2cc(-c3ccccc3)n(C3OC(COC(C)=O)C(OC(C)=O)C(OC(C)=O)C3OC(C)=O)c(=S)c2C#N)cc1 (stereo not given)	two
16. O=C1C(NS(=O)(=O)c2ccccc2)=C(n2cnc3ccccc32)C(=O)c2ccccc21	three
17. COC(=O)[C@]12CC[C@@H](C)[C@H](C)[C@@H]1C1=CC[C@@H]3[C@@]4(C)C[C@@H](OC(=O)c5ccco5)[C@H](O)[C@@](C)(CO)[C@@H]4[C@H](O)C[C@@]3(C)[C@]1(C)CC2	one

These measurements were taken from PubChem BioAssay (NCI).
